- System under test: AgFus1
- Test: SPOT peptide array binding signal intensity (averaged, normalized) (arbitrary units (background-subtracted, floor 0; scale differs between SH3 domains)); higher = stronger binding of the SH3 domain to the peptide
Lab note: class by SPOT peptide array binding signal intensity, see LOW (below 200), MEDIUM (200 to below 600), HIGH (600 or more)

Binder	Assigned category
LKRITSPPLPPRADS	LOW
TYNRTAFQIPGDQSI	LOW
RPVPRRPSQPLNTLS	LOW
HKVLRPFLLRRLKKD	MEDIUM
VPPPMQPPPIESSNL	LOW
RFKRHRLEFPFNESE	MEDIUM

INPUT: Please indicate the class for "RRRIAYPFYPFKKLG" based on its SPOT peptide array binding signal intensity.
OUTPUT: MEDIUM
